Please provide measured Kd for the entries that follow.
molecular target: GDP-bound KRAS wild-type protein (Homo sapiens, UniProt P01116); assay: Binding to KRAS by surface plasmon resonance (SPR), Single Cycle Kinetics; conditions: SPR, Single Cycle Kinetics, 1:1 binding model; GDP-bound KRAS wild-type protein; read-out: KRAS KD
Sequence (P01116 whole entry): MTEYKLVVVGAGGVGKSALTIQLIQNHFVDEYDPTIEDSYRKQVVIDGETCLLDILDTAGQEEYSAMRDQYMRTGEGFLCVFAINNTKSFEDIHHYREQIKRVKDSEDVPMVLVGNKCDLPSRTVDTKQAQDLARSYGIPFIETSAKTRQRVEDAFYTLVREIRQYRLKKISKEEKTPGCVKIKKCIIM
Please make sure the unit comes right after the number.

Prompt line: Item: CCO[C@@H]1C[C@H]2C(=O)NC3(CCC3)C(=O)N(C)[C@@H](C(CC)CC)C(=O)N(C)[C@H](C(=O)N(C)C)CC(=O)N(C)[C@@H](CC3CC3)C(=O)N[C@@H]([C@@H](C)CC)C(=O)N(C)CC(=O)N(C)[C@H]3C/C=C\CCN(C3=O)[C@@H](Cc3ccc(C(F)(F)F)cc3)C(=O)N(C)CC(=O)N[C@@H](CCc3cc(F)c(Cl)c(F)c3)C(=O)N2C1 Test system: GDP-bound KRAS wild-type protein (Homo sapiens, UniProt P01116) Read-out: Kd Value: ?
Response line: 0.66 nM

Prompt line: Item: CC[C@H](C)[C@@H]1NC(=O)[C@H](CC)N(C)C(=O)C[C@@H](C(=O)N(C)C)N(C)C(=O)[C@H](C2CCCC2)N(C)C(=O)C2(CCC2)NC(=O)[C@@H]2CC(F)(F)CN2C(=O)[C@H](CCc2cc(F)c(C(F)(F)F)c(F)c2)NC(=O)CN(C)C(=O)[C@H](CC2CCCCC2)N2CC/C=C\C[C@@H](C2=O)N(C)C(=O)CN(C)C1=O Test system: GDP-bound KRAS wild-type protein (Homo sapiens, UniProt P01116) Read-out: Kd Value: ?
Response line: 0.12 nM

Prompt line: Item: CCO[C@@H]1C[C@H]2C(=O)NC3(CCC3)C(=O)N(C)[C@@H](C(CC)CC)C(=O)N(C)[C@H](C(=O)N(C)C)CC(=O)N(C)[C@@H](CC)C(=O)N[C@@H]([C@@H](C)CC)C(=O)N(C)CC(=O)N(C)[C@H]3C/C=C\CCN(C3=O)[C@@H](Cc3ccc(C(F)(F)F)cc3)C(=O)N(C)CC(=O)N[C@@H](CCc3ccc(C(F)(F)F)c(OC)c3)C(=O)N2C1 Test system: GDP-bound KRAS wild-type protein (Homo sapiens, UniProt P01116) Read-out: Kd Value: ?
Response line: 0.21 nM
